test system: DMS-114; experiment: NCI tumour cell line growth inhibition, 48 h
Active and inactive are the calls of the source. No stated cut-off is given here; in the data, active = GI50 up to about 1.1 µM and inactive = higher.
GI50 overview
Measure: GI50

compound="C/C(=C\\c1ccccc1)C(O)C(=O)c1nc2ccc(Cl)cc2nc1O (stereo not given)" value_observed="46.3 µM (inactive)"
compound="O=c1ccn(C2(CO)C=C(CO)C(O)C2O)c(=O)[nH]1 (stereo not given)" value_observed="> 25.7 µM (inactive)"
compound="COc1cc([C@@H]2c3cc4c(cc3[C@@H](NC(=O)c3cccc(N)c3)C3COC(=O)[C@@H]32)OCO4)cc(OC)c1O (stereo not given in full)" value_observed="0.968 µM (active)"
compound="C[N+](C)(C)CC1CCc2ccccc2C1=O (stereo not given)" value_observed="13.5 µM (inactive)"
compound="O=C1c2cc3c(cc2[C@@H]2C(O)[C@H]4O[C@H]4C4CCN1C42)OCO3 (stereo not given in full)" value_observed="> 37.5 µM (inactive)"
